Hey, just so you know, these numbers are from paper PMC9967538.

Test system: MCF-7 breast adenocarcinoma cell line
Test Name: MTT cell proliferation assay, MCF-7
Type: cell-based, human
Stated Conditions: Homo sapiens, MCF7; MCF-7, 24 h, MTT, estimation ± SE
pIC50: −log10 of the molar value.
Measurement Name: pIC50

[[record]]
molecule = "C[C@@H]1O[C@@H](O[C@@H]2[C@@H](O)[C@H](OCCc3ccc(O)c(O)c3)O[C@H](CO)[C@H]2OC(=O)/C=C/c2ccc(O)c(O)c2)[C@H](O)[C@H](O)[C@H]1O [Acteoside]"
measurement_name = "pIC50"
recorded_value = 3.66


###

Test Name: MTT cell proliferation assay, OVCAR-3
Assay type: cell-based, human
Stated Conditions: human
Measurement Name: viability at 200 µM

[[record]]
compound = "C[C@@H]1O[C@@H](O[C@@H]2[C@@H](O)[C@H](OCCc3ccc(O)c(O)c3)O[C@H](CO)[C@H]2OC(=O)/C=C/c2ccc(O)c(O)c2)[C@H](O)[C@H](O)[C@H]1O [Acteoside]"
recorded_value = "≤ 30%"


###

Test Name: MTT cell proliferation assay, MCF-7
Assay type: cell-based, human
Stated Conditions: human
Measurement Name: viability at 200 µM

[[record]]
compound = "C[C@@H]1O[C@@H](O[C@@H]2[C@@H](O)[C@H](OCCc3ccc(O)c(O)c3)O[C@H](CO)[C@H]2OC(=O)/C=C/c2ccc(O)c(O)c2)[C@H](O)[C@H](O)[C@H]1O [Acteoside]"
recorded_value = "≤ 30%"


###

Test Name: MTT cell proliferation assay, HepG2
Assay type: cell-based, human
Stated Conditions: human
Measurement Name: viability at 200 µM

[[record]]
compound = "C[C@@H]1O[C@@H](O[C@@H]2[C@@H](O)[C@H](OCCc3ccc(O)c(O)c3)O[C@H](CO)[C@H]2OC(=O)/C=C/c2ccc(O)c(O)c2)[C@H](O)[C@H](O)[C@H]1O [Acteoside]"
recorded_value = "≤ 30%"


###

Test system: MCF-12A nontumorigenic mammary epithelial cell line
Test Name: MTT cell proliferation assay, MCF-12A
Type: cell-based, human
Stated Conditions: Homo sapiens; MCF-12A, time not stated, summary of Table 1; read-out: IC50 (potency against the MCF-12A line)
Measurement Name: IC50

[[record]]
compound = "C[C@@H]1O[C@@H](O[C@@H]2[C@@H](O)[C@H](OCCc3ccc(O)c(O)c3)O[C@H](CO)[C@H]2OC(=O)/C=C/c2ccc(O)c(O)c2)[C@H](O)[C@H](O)[C@H]1O [Acteoside]"
recorded_value = "~300 µM"

